Let's look at some compounds and their measured TBK1 Ratio.
biological target: TBK1 (residues 1-657) (Homo sapiens (Human)); test: TBK1 single-point kinase assay (radiolabeled ATP, MBP phosphorylation) with inhibitor at 2 μM; conditions: Ratio = inhibitor band intensity/amlexanox band intensity, less than 1 = greater potency than amlexanox
Sequence (Q9UHD2 1-657): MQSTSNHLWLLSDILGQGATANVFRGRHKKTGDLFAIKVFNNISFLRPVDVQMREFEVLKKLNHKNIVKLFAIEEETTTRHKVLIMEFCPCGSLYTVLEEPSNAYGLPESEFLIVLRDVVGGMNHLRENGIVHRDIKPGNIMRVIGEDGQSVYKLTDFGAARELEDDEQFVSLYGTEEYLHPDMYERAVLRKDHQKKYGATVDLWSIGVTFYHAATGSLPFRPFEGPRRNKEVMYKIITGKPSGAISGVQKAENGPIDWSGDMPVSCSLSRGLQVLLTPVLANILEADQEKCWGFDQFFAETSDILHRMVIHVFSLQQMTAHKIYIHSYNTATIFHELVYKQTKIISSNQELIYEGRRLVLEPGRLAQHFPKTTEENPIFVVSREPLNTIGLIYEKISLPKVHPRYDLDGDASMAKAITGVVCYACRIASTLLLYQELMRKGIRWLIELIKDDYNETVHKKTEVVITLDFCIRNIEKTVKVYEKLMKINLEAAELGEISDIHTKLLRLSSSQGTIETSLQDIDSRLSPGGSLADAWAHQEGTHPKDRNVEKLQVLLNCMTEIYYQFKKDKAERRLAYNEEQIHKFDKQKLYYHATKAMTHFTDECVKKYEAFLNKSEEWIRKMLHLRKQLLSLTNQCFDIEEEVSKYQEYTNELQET
readout-name: TBK1 Ratio

                                   compound  data_value
0      CC(C)c1ccc2oc3nc(N)c(CO)cc3c(=O)c2c1         2.7
1    C=Cc1ccc2oc3nc(N)c(C(=O)O)cc3c(=O)c2c1         1.0
2  CCN(CC)CCNC(=O)c1cc2c(=O)c3cc(C(C)C)ccc3oc2nc1N         2.9
3  CCOC(=O)c1cc2c(=O)c3cc(C(C)C)ccc3oc2nc1N         3.6
4  CC(C)c1ccc2oc3nc(/N=C/N(C)C)c(C(=O)O)cc3c(=O)c2c1         0.2
5  CC(C)c1ccc2oc3nc(N)c(C(=O)Nc4nnn[nH]4)cc3c(=O)c2c1         1.3
6  CCOC(=O)c1cc2c(=O)c3cc(CCC(C)(C)C)ccc3oc2nc1N [Compound 56d]         2.2
7          CC(C)c1ccc2oc3nc(N)ccc3c(=O)c2c1         2.2
8  CCOC(=O)c1cc2c(=O)c3cc(C4CCC(C)(C)CC4)ccc3oc2nc1N         3.7
9  CC(C)c1ccc2oc3nc(N)c(-c4nnn[nH]4)cc3c(=O)c2c1         0.6
